Target: Galectin-3 (Homo sapiens)
Sequence (P17931 whole entry): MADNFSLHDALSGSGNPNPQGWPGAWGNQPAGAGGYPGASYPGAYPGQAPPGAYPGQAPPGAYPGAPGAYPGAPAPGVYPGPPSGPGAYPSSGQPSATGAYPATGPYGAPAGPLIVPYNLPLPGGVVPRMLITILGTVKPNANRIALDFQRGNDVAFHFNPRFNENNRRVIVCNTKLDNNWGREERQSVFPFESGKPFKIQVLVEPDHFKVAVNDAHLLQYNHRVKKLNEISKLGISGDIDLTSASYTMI
measured.endpoint: IC50 (µM)

- CO[C@@H]1[C@@H](n2cc(-c3cc(F)c(Cl)c(F)c3)nn2)[C@@H](O)[C@@H](CO)O[C@H]1C(=O)N(c1cc(Br)cc(C#N)c1)[C@@H]1COC[C@H]1O: 0.046
- CO[C@@H]1[C@@H](n2cc(-c3cc(F)c(F)c(F)c3)nn2)[C@@H](O)[C@@H](CO)O[C@H]1C(=O)N(c1cc(Cl)cc(Cl)c1)[C@H]1COC[C@@H]1O: 0.072
- CO[C@@H]1[C@@H](n2cc(-c3ccc(Br)c(F)c3F)nn2)[C@@H](O)[C@@H](CO)O[C@H]1C(=O)N(c1cc(Cl)cc(Cl)c1)[C@H]1CNC[C@@H]1O: 0.012
- CO[C@@H]1[C@@H](n2cc(-c3cc(F)c(Cl)c(F)c3)nn2)[C@@H](O)[C@@H](CO)O[C@H]1C(=O)N(c1cc(Br)cc(C#N)c1)[C@H]1COC[C@@H]1O: 0.073
